Consider molecules characterized by their IC50 with Glycogen synthase kinase-3 beta (Homo sapiens).

The examples below pair each entry with its known result.
Cc1ccc(C(=O)N2CC3(C2)CC2(CO3)C3=C(N=NC3)NC3=C2C(=O)CC(C)(C)C3)cc1 (stereo unspecified) [US20250313563, Compound 947290] = < 0.1 µM
CC[C@H]1C[C@]2(CCO1)C1=C(N=NC1)NC1=C2C(=O)CC(C)(C)C1 [US20250313563, Compound 907329] = 1 to 5 µM
CCCc1cc(-c2cccc(C3(CC)C4=CN=NC4NC4=C3C(=O)CC(C)(C)C4)c2)ccn1 (stereo unspecified) [US20250313563, Compound 945467] = 0.1 to 1 µM
CCC1(c2cccc(N(C)c3ccnn3C)c2)C2=CN=NC2NC2=C1C(=O)CC(C)(C)C2 (stereo unspecified) [US20250313563, Compound 889604] = 1 to 5 µM
CC1(C)CC(=O)C2=C(C1)NC1=C(CN=N1)[C@]2(C)c1cc(C(F)(F)F)ccc1F [US20250313563, Compound 816798] = 0.1 to 1 µM

Enquiry: Give IC50 for CC1(C)CC(=O)C2=C(C1)NC1=C(CN=N1)C21CCN(S(=O)(=O)c2cnn(CCF)c2)CC1 [US20250313563, Compound 947903] tested on Glycogen synthase kinase-3 beta (Homo sapiens).
Return: < 0.1 µM

----------
Quick record of IC50 values for Glycogen synthase kinase-3 beta (Homo sapiens, UniProt P49841).

Sample records with IC50:
CC1(C)CC(=O)C2=C(C1)NC1=C(CN=N1)[C@]21CCN(S(=O)(=O)c2cccc(F)c2)C1 = < 100 nM
C[C@H]1C[C@@]2(CCN1S(C)(=O)=O)C1=CN=NC1NC1=C2C(=O)CC(C)(C)C1 (stereo partly drawn) = < 100 nM

Okay, next one:
Enquiry: Consider the molecule CC[C@@]1(c2ccccc2)C2=CN=NC2NC2=C1C(=O)CC(C)(C)[C@@H]2F (stereo partly drawn) tested on Glycogen synthase kinase-3 beta (Homo sapiens, UniProt P49841); state its IC50.
Sequence (P49841 whole entry): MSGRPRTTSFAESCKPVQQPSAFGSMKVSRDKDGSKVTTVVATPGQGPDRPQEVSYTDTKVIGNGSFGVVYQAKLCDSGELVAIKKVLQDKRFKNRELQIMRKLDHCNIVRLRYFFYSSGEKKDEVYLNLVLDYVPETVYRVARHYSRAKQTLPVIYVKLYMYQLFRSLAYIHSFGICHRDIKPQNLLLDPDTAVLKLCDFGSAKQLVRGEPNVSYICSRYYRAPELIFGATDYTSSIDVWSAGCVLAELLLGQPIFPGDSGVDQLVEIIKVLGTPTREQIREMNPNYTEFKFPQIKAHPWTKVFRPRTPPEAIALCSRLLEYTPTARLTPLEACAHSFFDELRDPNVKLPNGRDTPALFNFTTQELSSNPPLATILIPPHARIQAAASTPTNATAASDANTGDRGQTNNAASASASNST
Return: > 5000 nM

----------
Reported values: pIC50 for Glycogen synthase kinase-3 beta (Homo sapiens), one per item.
pIC50: −log10 of the molar value.

Enquiry: Report pIC50 under test system Glycogen synthase kinase-3 beta (Homo sapiens) for CCC1(c2cccc(S(=O)(=O)C(C)C)c2)C2=C(CC(C)(C)NC2=O)NC2N=NC(C)=C21 (stereo not drawn) .
Return: > 7.00

Enquiry: Find the measured pIC50 of CC[C@@]1(c2cccc(-c3ccnc(C)c3)c2)C2=C(CC(C)(C)CC2=O)NC2N=NC(C(F)(F)F)=C21 (stereo partly drawn) with Glycogen synthase kinase-3 beta (Homo sapiens) as test system.
Return: 5.30 to 6.00

Enquiry: Given CC1(C)CC(=O)C2=C(C1)NC1=C(CN=N1)[C@@]21COC2(CN(C(=O)Cc3ccccc3)C2)C1 , report its pIC50 on Glycogen synthase kinase-3 beta (Homo sapiens).
Return: > 7.00

Enquiry: Look up and report measured pIC50 (Glycogen synthase kinase-3 beta (Homo sapiens)) for the following molecule: CCC1(c2cccc(N(C)c3ncccn3)c2)C2=C(CC(C)(C)NC2=O)NC2N=NC(C(F)F)=C21 (stereo not drawn)
Return: > 7.00

----------
// reported pIC50 for each item listed
- TARGET: Glycogen synthase kinase-3 alpha (Homo sapiens)
- Sequence (P49840 whole entry): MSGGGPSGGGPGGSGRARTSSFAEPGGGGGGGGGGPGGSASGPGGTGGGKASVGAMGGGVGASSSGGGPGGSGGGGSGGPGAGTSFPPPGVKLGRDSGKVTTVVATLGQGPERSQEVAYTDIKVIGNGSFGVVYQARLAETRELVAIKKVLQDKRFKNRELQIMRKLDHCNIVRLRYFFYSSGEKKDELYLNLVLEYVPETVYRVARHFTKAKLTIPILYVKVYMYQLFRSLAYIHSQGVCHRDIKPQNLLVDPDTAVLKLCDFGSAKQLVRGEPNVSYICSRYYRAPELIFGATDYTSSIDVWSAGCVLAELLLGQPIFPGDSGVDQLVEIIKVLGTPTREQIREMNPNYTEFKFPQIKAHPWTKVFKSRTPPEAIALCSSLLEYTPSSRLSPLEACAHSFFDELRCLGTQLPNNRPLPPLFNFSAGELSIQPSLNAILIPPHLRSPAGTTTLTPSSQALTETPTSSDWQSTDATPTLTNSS
pIC50: −log10 of the molar value.

CC[C@]1(c2cccc(N3CCOCC3)c2)C2=C(CC(C)(C)CC2=O)NC2N=NC(C(F)(F)F)=C21 (some centres undefined) = > 7.00
CCC1(c2cccc(-c3c(C)nn(C)c3C)c2)C2=C(CC(C)(C)NC2=O)NC2N=NC(C)=C21 (centres undefined) = > 7.00
CC[C@]1(c2ccccc2)C2=C(CC(C)(C)CC2=O)NC2N=NC(C(F)F)=C21 (some centres undefined) = > 7.00
CC1(C)CC(=O)C2=C(C1)NC1=C(CN=N1)[C@]21COC2(CN(C(=O)C(C)(F)F)C2)C1 = > 7.00
CC[C@@]1(c2cccc(-c3ccnc(C)c3F)c2)C2=C(CC(C)(C)CC2=O)NC2N=NC(C)=C21 (some centres undefined) = < 5.30

Enquiry: Answer with pIC50 of CC[C@]1(c2cccc(-c3ccnc4c3CCC4)c2)C2=CN=NC2NC2=C1C(=O)CC(C)(C)C2 (some centres undefined) measured for Glycogen synthase kinase-3 alpha (Homo sapiens).
Return: 5.30 to 6.00

Enquiry: # return pIC50 of CCC1(c2cccc(-c3cc(C)nn3C)c2)C2=CN=NC2NC2=C1C(=O)CC(C)(C)C2 (centres undefined) (system: Glycogen synthase kinase-3 alpha (Homo sapiens))
Return: > 7.00

Enquiry: Look up Glycogen synthase kinase-3 alpha (Homo sapiens) data: pIC50 of CCN(c1cccc(C2(CC)C3=CN=NC3NC3=C2C(=O)CC(C)(C)C3)c1)c1cccnc1C (centres undefined) , then report it.
Return: 6.00 to 7.00

Enquiry: Determine reported pIC50 for CC1(C)CC(=O)C2=C(C1)NC1N=NC(CCC(F)(F)F)=C1C2(C)c1ccccc1 (centres undefined) ; test system: Glycogen synthase kinase-3 alpha (Homo sapiens).
Return: 6.00 to 7.00
